Assay: Binding affinity against Endothiapepsin
Measured Log Kd of individual entries
Form field (numeric): enter value without unit.

Compound string | Log Kd
C[C@@H](O)[C@H](NC(=O)[C@@H]1CCCN1)C(=O)N[C@@H](CCC(=O)O)C(=O)N[C@H](CN[C@@H](Cc1ccccc1)C(=O)N[C@@H](CCCN=C(N)N)C(=O)N[C@@H](CCC(=O)O)C(=O)O)Cc1ccccc1 | -7.22

Data point: CC[C@H](C)[C@@H](NC(=O)[C@@H](C[C@H](O)[C@H](CC(C)C)NC(=O)[C@H](Cc1c[nH]cn1)NC(=O)[C@H](Cc1ccccc1)NC(=O)[C@@H]1CCCN1C(=O)[C@@H](N)Cc1c[nH]cn1)C(C)C)C(=O)N[C@@H](Cc1c[nH]cn1)C(=O)O ; Log Kd = -9.02

====

Molecular target: Thermolysin (Bacillus thermoproteolyticus) (UniProt P00800)
Sequence (whole entry): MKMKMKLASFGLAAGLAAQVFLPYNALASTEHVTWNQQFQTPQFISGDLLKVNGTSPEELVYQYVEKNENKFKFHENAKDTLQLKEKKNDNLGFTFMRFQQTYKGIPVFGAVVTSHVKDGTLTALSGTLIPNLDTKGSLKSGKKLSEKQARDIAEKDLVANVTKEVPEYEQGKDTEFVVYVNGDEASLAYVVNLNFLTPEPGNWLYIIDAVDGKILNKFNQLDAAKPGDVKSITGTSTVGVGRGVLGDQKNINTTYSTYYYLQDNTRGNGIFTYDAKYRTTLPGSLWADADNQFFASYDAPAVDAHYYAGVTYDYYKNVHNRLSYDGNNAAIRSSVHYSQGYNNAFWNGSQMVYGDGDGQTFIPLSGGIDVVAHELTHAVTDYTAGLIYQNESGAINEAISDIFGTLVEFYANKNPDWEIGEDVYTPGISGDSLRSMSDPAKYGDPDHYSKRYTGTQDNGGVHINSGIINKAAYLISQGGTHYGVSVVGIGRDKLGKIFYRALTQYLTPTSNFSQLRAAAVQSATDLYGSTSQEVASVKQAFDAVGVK
Experiment: Binding affinity against Thermolysin
// returns rule not met unless Log Kd is strictly below -6, in which case rule met

Examples with answers:
Compound | Class name
CC(C)C[C@H](NC(CCc1ccccc1)C(=O)O)C(=O)N[C@@H](Cc1c[nH]c2ccccc12)C(=O)O (stereo partly specified) | rule met
CC(C)C[C@H](N)C(=O)NO | rule not met
CC(C)C[C@H](NP(=O)(O)O[C@@H]1O[C@@H](C)[C@H](O)[C@@H](O)[C@H]1O)C(=O)N[C@@H](Cc1c[nH]c2ccccc12)C(=O)O | rule met

Pending compound:
// query Is Log Kd of O=[N+]([O-])Nc1ccccc1 strictly below -6?
// result rule met

====

Test: Binding affinity against Endothiapepsin
Numbered stars: 1 amine (or outer) side, 2 acyl side, 3 side chain; on linkers, the order of the positions; unused ones are H or OH. Square brackets hold non-standard residues; d marks the D form. Peptide text beside a SMILES is read from it. * marks the point of attachment. X1 = CC(C)CC(C[C@H](O)[C@H](CC1CCCCC1)N[*:1])C(=O)[*:2]; Boc = CC(C)(C)OC(=O)*
Observed property: Log Kd
Form field (numeric): enter value without unit.

Sample answers from the record:
Compound | Log Kd
CC(C)CC(C[C@H](O)[C@H](CC1CCCCC1)NC(=O)[C@H](Cc1c[nH]cn1)NC(=O)[C@H](Cc1ccccc1)NC(=O)OC(C)(C)C)C(=O)N[C@@H](CCCCN)C(=O)N[C@@H](Cc1ccccc1)C(=O)O (stereo not given in full) (Boc-FH[X1]KF-OH) | -7.11
CC(C)C[C@H](NC(=O)C[C@H](O)[C@H](CC1CCCCC1)NC(=O)CC[C@H](O)[C@H](Cc1ccccc1)NC(=O)OC(C)(C)C)C(=O)NCc1cccc(CN)c1 | -4.8

Data point: CCC(C)CNC(=O)C(CC(C)C)CC(O)C(CC1CCCCC1)NC(=O)C(Cc1c[nH]cn1)NC(=O)C(Cc1cccc2ccccc12)Cc1cccc2ccccc12 (stereo not given) ; Log Kd = -6.63

Data point: CC(C)N(C[C@H](O)[C@H](CC1CCCCC1)NC(=O)[C@H](Cc1c[nH]cn1)NC(=O)[C@H](Cc1ccccc1)NC(=O)OC(C)(C)C)C(=O)N[C@@H](CCCCN)C(=O)N[C@@H](Cc1ccccc1)C(=O)O ; Log Kd = -6.58

Data point: CC[C@H](C)[C@H](NC(=O)[C@@H](NC[C@H](CC(C)C)NC(=O)[C@H](Cc1c[nH]cn1)NC(=O)[C@H](Cc1ccccc1)NC(=O)[C@@H]1CCCN1C(=O)[C@H](Cc1c[nH]cn1)NC(=O)[C@@H]1CCCN1)C(C)C)C(=O)N[C@@H](Cc1c[nH]cn1)C(=O)N[C@@H](CCCCN)C(=O)O ; Log Kd = -6.8

Data origin, for the record: ChEMBL document CHEMBL1135481
